// reported Bliss excess per item
Tested on: KARPAS-620 (Plasma Cell Myeloma);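 also: after 72 h of two-drug dosing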
Assay: Bliss excess, mean over the matrix (fraction); higher = more synergy
Give a plain numeric answer without units written out.

[[record]]
compound = "C=CCn1c(=O)c2cnc(Nc3ccc(N4CCN(C)CC4)cc3)nc2n1-c1cccc(C(C)(C)O)n1 [AZD1775] + O=C(c1cc(Cc2n[nH]c(=O)c3ccccc23)ccc1F)N1CCN(C(=O)C2CC2)CC1 [Olaparib] (first compound max 1 µM, partner max 10 µM)"
system = "KARPAS-620 (Plasma Cell Myeloma)"
numeric_readout = -0.0324

[[record]]
compound = "CN(C)CCCOc1ccc(-c2ccc3ncc4c(c3c2)n(C2CCOCC2)c(=O)n4C)cn1 [AZD0156] + O=C(c1cc(Cc2n[nH]c(=O)c3ccccc23)ccc1F)N1CCN(C(=O)C2CC2)CC1 [Olaparib] (first compound max 3 µM, partner max 3 µM)"
system = "KARPAS-620 (Plasma Cell Myeloma)"
numeric_readout = 0.0798

[[record]]
compound = "CC(=O)Nc1cccc(-n2c(=O)n(C3CC3)c(=O)c3c(Nc4ccc(I)cc4F)n(C)c(=O)c(C)c32)c1 [Trametinib] + Cc1nc(-c2cn3c(n2)-c2ccc(-c4cnn(C(C)(C)C(N)=O)c4)cc2OCC3)n(C(C)C)n1 [Taselisib] (first compound max 1 µM, 7x7, partner max 10 µM)"
system = "KARPAS-620 (Plasma Cell Myeloma)"
numeric_readout = 0.24


Problem: Given the entry C[C@@H]1COCCN1c1cc(C2([S@](C)(=N)=O)CC2)nc(-c2ccnc3[nH]ccc23)n1 [AZD6738] + C1CC(C1)(C(=O)[O-])C(=O)[O-].N.N.[Pt+2] [Carboplatin] (first compound max 10 µM, 7x7, partner max 10 µM) , what Bliss excess was observed with KARPAS-620 (Plasma Cell Myeloma)?
Result: -0.0135

* * *

System: IHH-4 (Thyroid Gland Carcinoma)
Test: combination Emax (second highest fraction inhibited in the dose matrix, 72 h); higher = more inhibition; extreme values may be limits of the assay
MEASUREMENT_KIND: combination Emax
Give a plain numeric answer without units written out.

[[record]]
molecule = "C=CCn1c(=O)c2cnc(Nc3ccc(N4CCN(C)CC4)cc3)nc2n1-c1cccc(C(C)(C)O)n1 [AZD1775] + C[C@@H]1COCCN1C2=NC(=NC(=C2)C3(CC3)[S@](=N)(=O)C)C4=C5C=CNC5=NC=C4 [AZD6738] (first compound max 1 µM, partner max 10 µM)"
numeric_readout = 0.886

[[record]]
molecule = "Cc1c2c(nn1C)CSCc1cc(n(C)n1)CSc1cc(c3ccccc3c1)OCCCc1c(C(=O)O)n(C)c3c-2c(Cl)ccc13 [AZD5991] + C=CCn1c(=O)c2cnc(Nc3ccc(N4CCN(C)CC4)cc3)nc2n1-c1cccc(C(C)(C)O)n1 [AZD1775] (first compound max 1 µM, partner max 1 µM)"
numeric_readout = 0.684

[[record]]
molecule = "CC(=O)c1c(C)c2cnc(Nc3ccc(N4CCNCC4)cn3)nc2n(C2CCCC2)c1=O [Palbociclib] + Cc1c2c(nn1C)CSCc1cc(n(C)n1)CSc1cc(c3ccccc3c1)OCCCc1c(C(=O)O)n(C)c3c-2c(Cl)ccc13 [AZD5991] (first compound max 10 µM, 7x7, partner max 1 µM)"
numeric_readout = 0.411

[[record]]
molecule = "CC1(C)CCC(CN2CCN(c3ccc(C(=O)NS(=O)(=O)c4ccc(NCC5CCOCC5)c([N+](=O)[O-])c4)c(Oc4cnc5[nH]ccc5c4)c3)CC2)=C(c2ccc(Cl)cc2)C1 [Venetoclax] + C[C@@H]1COCCN1C2=NC(=NC(=C2)C3(CC3)[S@](=N)(=O)C)C4=C5C=CNC5=NC=C4 [AZD6738] (first compound max 1 µM, 7x7, partner max 10 µM)"
numeric_readout = 0.691

[[record]]
molecule = "NC1(C(=O)N[C@@H](CCO)c2ccc(Cl)cc2)CCN(c2ncnc3[nH]ccc23)CC1 [Capivasertib] + CC(=O)c1c(C)c2cnc(Nc3ccc(N4CCNCC4)cn3)nc2n(C2CCCC2)c1=O [Palbociclib] (first compound max 10 µM, 7x7, partner max 10 µM)"
numeric_readout = 0.618


Problem: Would you kindly share the measured combination Emax for CS(=O)(=O)CCNCc1ccc(-c2ccc3ncnc(Nc4ccc(OCc5cccc(F)c5)c(Cl)c4)c3c2)o1 [Lapatinib] + C[C@@H](Oc1cc(-c2cnn(C3CCNCC3)c2)cnc1N)c1c(Cl)ccc(F)c1Cl [Crizotinib] (first compound max 10 µM, 7x7, partner max 10 µM) ?
Result: 0.907
